Source listed as PubChem BioAssay.

Exercise: state measured z-score for each of the compounds provided.
assay: CREB reporter modulators under forskolin, primary screen, cell-based, PC12, CRE-LacZ reporter, forskolin-stimulated (AID 1146); settings: luminescence, 4.5 h, higher = more signal, called active from +8 up or from −8 down;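 note: PC12 cells with 6xCRE LacZ reporter stimulated by forskolin 10 µM; beta-galactosidase reporter signal reflecting CREB driven transcription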
Returns: the value as a bare number; no unit string appended.

Q: Item under review: CCOC(=O)C1=CCC(c2ccc(C#N)cc2)N(S(=O)(=O)c2ccc(C)cc2)C1 (centres undefined) . Reported z-score?
Result: -0.986

Q: Item under review: COC(=O)C1=CC(CCCO)=CC(C2CC2)N(Cc2sc3ccccc3c2Cl)C=C1C(=O)OC (centres undefined) . Reported z-score?
Result: 0.106

Q: Item under review: CCOC(=O)C1=CC[C@@H](c2ccccc2)N(S(=O)(=O)c2ccc(C)cc2)[C@H]1C(=O)OCC . Reported z-score?
Result: -0.76

Q: Item under review: C=CC[C@@]1(C(=O)O)N=C(c2ccc(OCCCO)cc2)O[C@@H]1c1ccccc1N=[N+]=[N-] . Reported z-score?
Result: -0.432

Q: Item under review: COC(=O)[C@@]1(Cc2ccccc2)[C@H]2c3cc(C(=O)N(C)C)n(Cc4c(-c5ccccc5)noc4C)c3C[C@H]2CN1C(=O)c1ccccc1 . Reported z-score?
Result: -0.732

Q: Item under review: COC(=O)c1ccc(OC)c(/C=C\CC(OC(C)=O)c2ccccc2)c1 (centres undefined) . Reported z-score?
Result: -0.0792

Q: Item under review: COCCOC(=O)N1C(=O)[C@@]2(c3ccccc31)[C@H](C(=O)NC[C@H](O)c1ccccc1)[C@H]1C(=O)O[C@H](c3ccccc3)[C@H](c3ccccc3)N1[C@@H]2c1ccc(OCCO)cc1 . Reported z-score?
Result: -0.686

Q: Item under review: C=CCC(OC(C)=O)[C@@H]1[C@@H](N(Cc2ccc(-c3ccccc3)cc2)C(=O)Cc2ccc(F)cc2)c2cc(OCCCO)ccc2N1C(=O)c1ccc2ccccc2n1 (some centres undefined) . Reported z-score?
Result: -0.116

Q: Item under review: CC(C)(C)N1CC=CC23O[C@@H]4/C=C\CCCOC(=O)C4[C@H]2C(=O)N(CCO)[C@@H]3C1=O (some centres undefined) . Reported z-score?
Result: -0.533

---

experiment: yeast growth modulation, basal conditions, primary screen, YJM789 clinical isolate, OD600, 24 h (AID 1089);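 note: growth of clinical yeast isolate S. cerevisiae YJM 789 seeded 1000 cells per well; test concentration not given here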; conditions: S. cerevisiae YJM789 growth, higher = more signal, called active from +8 up or from −8 down
Calls of active or inactive are those of the source.
Exercise: state measured z-score for each of the compounds provided.

Q: Item under review: CN(C)CCCCNC(=O)[C@H]1C[C@H]2C(=O)N[C@@H](Cc3ccccc3)C(=O)N2[C@H]1c1ccc(O)cc1 . Reported z-score?
Result: -0.368 (inactive)

Q: Item under review: CCC(CC)C(O)C1C=CC2C(=O)N(c3ccccc3)C(=O)C2N1Nc1ccc(C#N)cc1 (configuration not stated) . Reported z-score?
Result: -0.295 (inactive)

Q: Item under review: CC(C)N1C(=O)C[C@@](C(=O)NCc2ccccc2)(c2ccc([N+](=O)[O-])cc2)[C@H]1c1ccc(CO)cc1 . Reported z-score?
Result: 0.296 (inactive)

Q: Item under review: O=C1C2C=CC(C(O)c3ccc(-c4ccccc4)s3)N(n3cnnc3)C2C(=O)N1Cc1ccccc1 (configuration not stated) . Reported z-score?
Result: -0.466 (inactive)

Q: Item under review: COC(=O)[C@@]1(Cc2ccccc2)[C@H]2c3cc(C(=O)N4CCCC4)n(C)c3C[C@H]2CN1C(=O)c1ccccc1 . Reported z-score?
Result: 0.29 (inactive)

Q: Item under review: O=C1O[C@@H](c2ccccc2)[C@@H](c2ccccc2)N2[C@@H](c3ccc(O)cc3)[C@]3(C(=O)Nc4ccc(C#CC5(O)CCCCCC5)cc43)[C@@H](C(=O)N3CCCCCCC3)[C@H]12 . Reported z-score?
Result: 1.16 (inactive)

Q: Item under review: CO[C@H]1O[C@H](CO)[C@@H](OC(=O)Nc2ccc(Oc3ccccc3)cc2)[C@H](OC(=O)Nc2ccccc2)[C@H]1OC(=O)Nc1ccccc1 . Reported z-score?
Result: 1.48 (inactive)
